Molecular target: 12-lipoxygenase (Rattus norvegicus, UniProt F1LQ70)
Construct: The platelets were then sonicated at 4° C. and centrifuged at 100,000×g for 30 minutes to obtain a supernatant as a 12-lipoxygenase enzyme solution; from tissue; host or cells: Sprague Dawley rat platelets (from aortic blood), sonicated, 100,000 x g supernatant
Sequence (F1LQ70 1-663): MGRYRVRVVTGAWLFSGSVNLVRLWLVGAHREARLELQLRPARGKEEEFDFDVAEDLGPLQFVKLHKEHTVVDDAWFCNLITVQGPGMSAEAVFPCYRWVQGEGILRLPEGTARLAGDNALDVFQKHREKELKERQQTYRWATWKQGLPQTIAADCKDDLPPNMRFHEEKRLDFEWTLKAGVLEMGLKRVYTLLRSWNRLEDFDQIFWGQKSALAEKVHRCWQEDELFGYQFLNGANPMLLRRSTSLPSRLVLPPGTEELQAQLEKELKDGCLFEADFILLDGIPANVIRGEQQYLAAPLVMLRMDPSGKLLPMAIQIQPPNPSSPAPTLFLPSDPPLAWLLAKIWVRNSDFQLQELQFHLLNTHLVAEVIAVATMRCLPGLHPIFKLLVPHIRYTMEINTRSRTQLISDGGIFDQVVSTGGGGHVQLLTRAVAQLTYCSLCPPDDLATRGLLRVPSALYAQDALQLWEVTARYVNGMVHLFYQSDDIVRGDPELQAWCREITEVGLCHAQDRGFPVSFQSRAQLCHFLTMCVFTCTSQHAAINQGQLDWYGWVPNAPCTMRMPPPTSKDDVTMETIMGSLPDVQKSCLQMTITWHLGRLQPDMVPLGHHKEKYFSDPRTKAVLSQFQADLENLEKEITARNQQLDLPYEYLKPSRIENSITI
Experiment: 12-lipoxygenase inhibition assay (rat platelet supernatant, arachidonic acid, HPLC of 12-HETE)
Assay type: biochemical, Sprague Dawley male rat (platelets)
Details: 12-lipoxygenase IC50 value, Test Example 1, Table 1 and text
Protocol: A Sprague Dawley male rat was anesthetized with ether and bled from abdominal aorta using a syringe filled with about one-tenth volume of 3.8% sodium citrate. Blood was centrifuged at 180×g for 15 minutes at room temperature to pellet sanguineous platelet blood plasma. The resultant supernatant was again centrifuged at 1800×g for 10 minutes at 4° C. […] They were measured in the same method as in Test Example 1.
readout-type: IC50 (µM)

>>> df
                                   molecule  unit_tag  readout_number
0  O=c1ccc2cc(O)c(O)cc2o1 [Esculetin, 6,7-dihydroxycoumarin, reference compound]        µM             4.4
